Here, each record is paired with measured IC50 data.
Test system: MDCK
assayNotes: Cytotoxicity against MDCK cells after 4 days by MTT assay
Type: cell-based
conditionContext: Canis lupus familiaris, 96 h
measurementType: IC50

1. O=c1[nH]cc(-c2ccccc2)cc1O | 80 µM
2. N#Cc1ccc(-c2ccc(O)c(=O)[nH]2)cc1 | > 100 µM
3. O=c1[nH]c(-c2ccccc2)c(-c2ccccc2)cc1O | > 100 µM
4. O=c1[nH]ccc(-c2ccc(F)cc2)c1O | > 100 µM
5. O=c1[nH]c(-c2ccc(-c3nnn[nH]3)cc2)ccc1O | > 100 µM
6. N#Cc1ccc(-c2cc(O)c(=O)[nH]c2-c2ccc(C#N)cc2)cc1 | 40 µM
7. O=c1[nH]ccc(-c2ccccc2)c1O | > 100 µM
